Data credit: PubChem BioAssay

- TARGET ENTITY: Dual specificity protein phosphatase 6 (Homo sapiens)
- PROTOCOL TEXT: DUSP6 inhibitors restoring Erk phosphorylation by chemical complementation, primary imaging in DUSP6-transfected HeLa (AID 609);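 further: phospho-Erk level distribution per well compared with pooled transfected vehicle control wells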
- MEASUREMENT PARAMETERS: HeLa MKP-3 transfected, phospho-Erk imaging KS statistic; at 10 µM; active compounds read high; cells stimulated with TPA for 15 min
EXPERIMENTAL ENDPOINT: inhibition (%)
Value expressed in %; do not type the unit.

Entry CCOC(=O)C1=C(CSc2nc3c(cc2C#N)CCC3)OC(N)=C(C#N)C1c1ccccc1 (centres undefined) ; inhibition = -0.674

`Cc1cc(=O)oc(C)c1C(=O)Nc1cccc2nonc12` yielded inhibition of -4.7

inhibition in this record for `CC(=O)[C@H]1[C@H](C#N)C[C@H]2[C@@H]3CC=C4C[C@@H](O)CC[C@]4(C)[C@H]3CC[C@@]21C` : -2.46

For record `CCOC(=O)Cn1c(SC)nc2sc3c(c2c1=O)CC(C)(C)OC3` the listed inhibition is -0.159
